Values were extracted from patent US11492347B2.

Recorded Residual cluster bound at end of experiment (Percentage Absorbance 458 nm at time zero) for the following compounds
Target: CISD3 Gene Product (Miner2) (Homo sapiens)
Sequence (P0C7P0 15-127): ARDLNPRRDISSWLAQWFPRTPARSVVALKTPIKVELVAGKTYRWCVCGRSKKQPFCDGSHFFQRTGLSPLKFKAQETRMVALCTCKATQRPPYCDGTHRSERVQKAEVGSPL
Test: Stability of Fe-S cluster binding of purified NEET protein (absorbance 458 nm)
Type: biochemical
Details: CISD3 gene product 20 μM, compound 60 μM, pH 6, at 180 minutes; vehicle control 11%
REPORTED PROPERTY: Residual cluster bound at end of experiment (Percentage Absorbance 458 nm at time zero)

COMPOUND	TEST RESULT
COC1CN(c2ccc(C(=O)Nc3sc4c(c3C(=O)O)CC(C)(C)CC4(C)C)cc2)C1	44% (11%)
CC1(C)Cc2c(sc(NC(=O)c3ccc(Br)cc3)c2C(=O)O)C(C)(C)C1	66% (11%)
CC1(C)Cc2c(sc(NC(=O)c3ccc(NC4CCOCC4)cc3)c2C(=O)O)C(C)(C)C1	20% (11%)
COc1ccc(C(=O)Nc2sc3c(c2C(=O)O)CCC(C)(C)C3)cc1OC	70% (11%)
